Hi there, I'd appreciate the recorded GI50 at 24 h for every entry that follows.
assay: Cytotoxicity against HEK293T cells after 24 hrs by MTT assay; type: cell-based, HEK-293T; details: human
Answers are plain numbers, in µM.

Reference set, count: 3
| Structure Smiles String | Observation Type | Numeric Value |
| --- | --- | --- |
| COc1cc(OC)cc(C(=O)N/N=C2/C(=O)N(CC=C(C)C)c3ccccc32)c1 | GI50 at 24 h | 176 |
| COc1ccc(C(=O)N/N=C2/C(=O)N(CC=C(C)C)c3ccccc32)cc1OC | GI50 at 24 h | 184 |
| CC(C)=CCN1C(=O)/C(=N/NC(=O)c2ccc(F)cc2)c2ccccc21 | GI50 at 24 h | 195 |

Please examine the following record next.
Tell me the measured GI50 at 24 h of COc1ccc(C(=O)N/N=C2/C(=O)N(CC=C(C)C)c3ccccc32)cc1F , please. 169

###

target: Urease (Helicobacter pylori, UniProt Q0PXQ5)
Sequence (Q0PXQ5 whole entry): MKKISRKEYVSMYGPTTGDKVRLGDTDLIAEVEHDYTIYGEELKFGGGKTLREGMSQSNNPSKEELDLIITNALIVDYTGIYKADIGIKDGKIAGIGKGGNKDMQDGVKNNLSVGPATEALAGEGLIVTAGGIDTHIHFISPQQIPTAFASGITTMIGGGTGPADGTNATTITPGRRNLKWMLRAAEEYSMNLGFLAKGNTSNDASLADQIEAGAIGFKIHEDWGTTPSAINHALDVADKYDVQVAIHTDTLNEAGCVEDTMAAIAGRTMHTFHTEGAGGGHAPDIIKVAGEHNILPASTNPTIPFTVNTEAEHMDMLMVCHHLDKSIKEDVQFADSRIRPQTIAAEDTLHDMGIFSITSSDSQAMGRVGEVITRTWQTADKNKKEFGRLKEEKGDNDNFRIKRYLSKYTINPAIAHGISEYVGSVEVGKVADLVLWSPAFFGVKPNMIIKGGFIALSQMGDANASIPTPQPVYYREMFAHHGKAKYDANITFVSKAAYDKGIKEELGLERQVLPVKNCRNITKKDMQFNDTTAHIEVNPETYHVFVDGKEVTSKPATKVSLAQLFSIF
Assign labels as follows, please: T for IC50 below 4 µM; F for IC50 equal to or exceeding 4 µM.

| Structure Smiles String | Category Label |
| --- | --- |
| CC(C)=CCN1C(=O)/C(=N/NC(=O)c2ccccc2)c2ccccc21 | F |

Take the compound COc1ccc(C(=O)N/N=C2/C(=O)N(CC=C(C)C)c3ccccc32)cc1OC and say whether its IC50 is less than 4 µM. T

Criterion: IC50 strictly below 4 µM. Is it met by CC(C)=CCN1C(=O)/C(=N/NC(=O)c2ccc(Oc3ccccc3)cc2)c2ccccc21 ? F

Is 4 µM strictly greater than the compound's reported IC50? compound: CC(C)=CCN1C(=O)/C(=N/NC(=O)c2cc(C)cc(C)c2)c2ccccc21 F

Please indicate whether the reported IC50 of COc1ccccc1C(=O)N/N=C1/C(=O)N(CC=C(C)C)c2ccccc21 is strictly below 4 µM. F

###

Would you mind telling me the reported GI50 at 24 h of each entry?
experiment: Cytotoxicity against human LO2 cells after 24 hrs by MTT assay; type: cell-based, L02

| Structure Smiles String | GI50 at 24 h |
| --- | --- |
| CC(C)=CCN1C(=O)/C(=N/NC(=O)c2ccc(Cl)cc2)c2ccccc21 | > 200 µM |
| CC(C)=CCN1C(=O)/C(=N/NC(=O)c2ccc(F)cc2)c2ccccc21 | > 200 µM |
| COc1ccc(C(=O)N/N=C2/C(=O)N(CC=C(C)C)c3ccccc32)cc1OC | 178 µM |

Hi team, please reply with GI50 at 24 h for each item in this list.
1. COc1ccc(C(=O)N/N=C2/C(=O)N(CC=C(C)C)c3ccccc32)cc1F
2. COc1cc(OC)cc(C(=O)N/N=C2/C(=O)N(CC=C(C)C)c3ccccc32)c1
3. CC(C)=CCN1C(=O)/C(=N/Nc2ccccc2)c2ccccc21

["> 200 µM", "188 µM", "> 200 µM"]
